Entries and their half-life at 0.5 mM values follow.
# experiment: Kinetic stability: exchange reaction with Zn2+ in acetate buffer, monitored by relaxivity
# Format: physicochemical
# cond: acetate buffer with Zn2+ challenge, pH 5.4, pH 5.4, [Zn] 10 mM, acetate buffer 10 mM, 25° C., chelate approx. 0.5 mM; read-out: Dissociation Half life t1/2
Number only, in min; omit the unit.

{"columns": ["compound", "metric-name", "unit", "endpoint-result"],
 "data": [
  ["CN1CCN2CC(=O)[O][Mn][O]C(=O)CN(CC1)Cc1cccc(n1)C2 [Example 1]", "half-life at 0.5 mM", "min", 44]
]}

Read the next record carefully.
What half-life at 0.5 mM value was documented for this compound, O=C1CN2CCNCCN(CC(=O)[O][Mn][O]1)Cc1cccc(n1)C2 [Compound disclosed in US5334371, reference compound] ?
15
